# ASSAY SYSTEM: human TAS2R14 (Homo sapiens)
# Construct: expressed in transfected cells; host or cells: HEK293T-Gα16gust44
# Sequence (Q9NYV8 1-317): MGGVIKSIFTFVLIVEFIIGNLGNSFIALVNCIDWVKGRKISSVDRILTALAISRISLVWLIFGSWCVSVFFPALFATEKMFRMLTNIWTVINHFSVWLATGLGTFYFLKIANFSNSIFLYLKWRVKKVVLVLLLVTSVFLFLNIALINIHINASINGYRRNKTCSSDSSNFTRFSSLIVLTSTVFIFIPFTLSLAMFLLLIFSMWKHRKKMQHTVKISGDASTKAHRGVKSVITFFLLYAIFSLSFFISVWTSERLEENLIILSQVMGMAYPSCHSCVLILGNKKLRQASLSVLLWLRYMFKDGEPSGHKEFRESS
# RUN DESCRIPTION: Calcium imaging assay (FLIPR), HEK293T-Gα16gust44 cells transfected with human TAS2R14
# Type: cell-based
# TEST CONDITIONS: TAS2R14 trace; Time (s) 179.578 (Taurocholic Acid 179.563, Chenodeoxycholic Acid 179.546)
PROPERTY: RLU (RLU)
Dear colleague, please return just the value in RLU, with no unit written.

C[C@H](CCC(=O)NCCS(=O)(=O)O)[C@H]1CC[C@H]2[C@@H]3CC[C@@H]4C[C@H](O)CC[C@]4(C)[C@H]3CC[C@]12C = 351.344
C[C@H](CCC(=O)NCCS(=O)(=O)O)[C@H]1CC[C@H]2[C@@H]3[C@H](O)C[C@@H]4C[C@H](O)CC[C@]4(C)[C@H]3C[C@H](O)[C@]12C = 847.479
C[C@H](CCC(=O)O)[C@H]1CC[C@H]2[C@@H]3[C@H](O)C[C@@H]4C[C@H](O)CC[C@]4(C)[C@H]3C[C@H](O)[C@]12C = 994.85
C[C@H](CCC(=O)O)[C@H]1CC[C@H]2[C@@H]3[C@H](O)C[C@@H]4C[C@H](O)CC[C@]4(C)[C@H]3CC[C@]12C = 300.666

Pending compound:
Query :: GET /values?readout=RLU&system=human TAS2R14 (Homo sapiens)&item= C[C@H](CCC(=O)NCC(=O)O)[C@H]1CC[C@H]2[C@@H]3[C@H](O)C[C@@H]4C[C@H](O)CC[C@]4(C)[C@H]3C[C@H](O)[C@]12C
Result :: 706.541

* * *

# ASSAY SYSTEM: human TAS2R1 (Homo sapiens)
# Construct: expressed in transfected cells; host or cells: HEK293T-Gα16gust44
# Sequence (Q9NYW7 whole entry): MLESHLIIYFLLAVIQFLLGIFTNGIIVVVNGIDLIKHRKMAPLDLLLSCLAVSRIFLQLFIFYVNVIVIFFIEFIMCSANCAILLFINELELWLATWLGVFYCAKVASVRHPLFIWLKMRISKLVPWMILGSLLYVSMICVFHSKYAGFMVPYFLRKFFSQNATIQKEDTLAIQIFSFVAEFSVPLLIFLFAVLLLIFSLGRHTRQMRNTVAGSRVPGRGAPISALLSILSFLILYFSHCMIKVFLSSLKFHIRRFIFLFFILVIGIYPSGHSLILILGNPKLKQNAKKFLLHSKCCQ
# RUN DESCRIPTION: Calcium imaging assay (FLIPR), HEK293T-Gα16gust44 cells transfected with human TAS2R1
# Type: cell-based
# TEST CONDITIONS: calcium trace, sheet TAS2R1; Time 329.547 s
# Experimental: This set of bile acids was chosen because of their commercial availability in high purities, their diversity within the class of bile acids and their previous detection and quantitation in human blood. Stock solutions were prepared in DMSO. […] Measured data were negative control corrected by subtracting the signal of the mock-transfected cells and exported to Microsoft Excel using the FLIPR software ScreenWorks 4.2. […]
PROPERTY: RLU (RLU)
Supply the numeric figure in RLU, leaving out any unit text.

Query :: Looking for the measured RLU of C[C@H](CCC(=O)O)[C@H]1CC[C@H]2[C@@H]3CC[C@@H]4C[C@H](O)CC[C@]4(C)[C@H]3C[C@H](O)[C@]12C , can you help?
Result :: 140.029

Query :: Could you tell me which RLU is on file for C[C@H](CCC(=O)NCCS(=O)(=O)O)[C@H]1CC[C@H]2[C@@H]3CC[C@@H]4C[C@H](O)CC[C@]4(C)[C@H]3CC[C@]12C ?
Result :: -230.646

Query :: So what does the record say about RLU for C[C@H](CCC(=O)NCC(=O)O)[C@H]1CC[C@H]2[C@@H]3[C@H](O)C[C@@H]4C[C@H](O)CC[C@]4(C)[C@H]3C[C@H](O)[C@]12C ?
Result :: 33.081

Query :: Query (molecule): C[C@H](CCC(=O)NCCS(=O)(=O)O)[C@H]1CC[C@H]2[C@@H]3[C@H](O)C[C@@H]4C[C@H](O)CC[C@]4(C)[C@H]3C[C@H](O)[C@]12C ; field requested: RLU
Result :: 11.6208
